# Tested on: HOP-92
# protocol-notes: NCI tumour cell line growth inhibition, 48 h
Calls of active or inactive are those of the source. Cut-off read from the data, not from the text of the source: active = GI50 up to about 1.1 µM and inactive = higher. Non-standard residues stand in square brackets, D forms with d. Residues, ends and D or L forms follow the SMILES beside them. ΔPro = O=C(O)[CH]1C=CCN1
Would you mind answering with one of these outcomes? 1 = active, 0 = inactive

COc1c(OC(C)C)c(OC(C)C)c2oc(=O)n3c2c1C(c1ccccc1-n1c(C)ccc1C)C=C3 (centres undefined)    0
O=C(Nc1ccccc1)c1cc(S(=O)(=O)Nc2n[nH]c(=O)[nH]2)c(SSc2cc(Cl)c(C(=O)Nc3ccccc3)cc2S(=O)(=O)Nc2n[nH]c(=O)[nH]2)cc1Cl    0
O=C1N(Cc2ccccc2)C2CSCC2N1Cc1ccccc1 (centres undefined)    0
C=CC1(CCC(Br)C(C)(C)Cl)CO1 (centres undefined)    0

Problem: Per the records of this test, what outcome belongs to COc1ccc(NC(=O)CC(=O)n2nc(-c3ccccc3)c(/N=N/c3ccc(C)cc3)c2-c2ccccc2)cc1 ?
Result: 0

Problem: Per the records of this test, what outcome belongs to CC(=O)OC1COC(N2C(=O)/C(=N\NC(N)=S)c3cc(Br)ccc32)C(OC(C)=O)C1OC(C)=O (centres undefined) ?
Result: 0

Problem: Per the records of this test, what outcome belongs to COc1cc2c(c(OC)c1OC)-c1ccc(SC)c(=O)cc1[C@@H](NCc1cccc([N+](=O)[O-])c1)CC2 ?
Result: 1

Problem: Per the records of this test, what outcome belongs to O=C(O)C1C=CCN1C(=O)C1C=CCN1C(=O)C1C=CCN1 (centres undefined) (H-[ΔPro]-[ΔPro]-[ΔPro]-OH; configuration not given here) ?
Result: 0

Problem: Per the records of this test, what outcome belongs to O=C1NC(=O)C2(CCC(O)C2)c2cc[n+]([O-])cc21 (centres undefined) ?
Result: 0

Problem: Per the records of this test, what outcome belongs to CCC1C(NC(=O)OC)C(=O)N1[C@@H](C)c1ccccc1 (some centres undefined) ?
Result: 0

Problem: Per the records of this test, what outcome belongs to CCOn1cc(C[C@@]2(O)C(=O)OC3[C@@H](O)CO[C@@]32O)c2ccccc21 (some centres undefined) ?
Result: 0

Problem: Per the records of this test, what outcome belongs to COc1ccc2c(c1)CCC(OS(=O)(=O)CC13CCC(CC1=O)C3(C)C)C2=O (centres undefined) ?
Result: 0

Problem: Per the records of this test, what outcome belongs to CCOC(=O)Oc1cc2c(c(OC)c1OC)-c1ccc(SC)c(=O)cc1C(NC(=O)C(F)(F)F)CC2 (centres undefined) ?
Result: 1

* * *

# System: HCC 2998
# protocol-notes: NCI tumour cell line growth inhibition, 48 h
Activity calls are given as the source filed them. No stated cut-off is given here; in the data, active = GI50 up to about 1.1 µM and inactive = higher.
Would you mind answering with one of these outcomes? y for active, n for inactive

O=C1c2c(O)cccc2Cc2cc(CO)cc(O)c21    n
CC(C)N(C(C)C)P(OCCC#N)OC1CC(n2cnc3c(=O)[nH]cnc32)OC1COC(=O)NCCCCCCNC(=O)OC(C)(C)c1ccc(-c2ccccc2)cc1 (centres undefined)    n
O=c1c2cc([N+](=O)[O-])cnc2sn1-c1ccc(Oc2ccccc2)cc1    n

Problem: Per the records of this test, what outcome belongs to CC1=CC(=O)C(=CN2C(=O)/C(=C\c3cccnc3)NC2=S)C(=O)O1 ?
Result: n

Problem: Per the records of this test, what outcome belongs to O=C1C(/N=N/c2ccc(-c3nc4ccccc4[nH]3)cc2)NC(=S)N1c1ccccc1 (centres undefined) ?
Result: n

Problem: Per the records of this test, what outcome belongs to Oc1ccc(SCc2ccc(NCc3ccccc3)cc2)cc1 ?
Result: n

* * *

# System: ACHN
# protocol-notes: NCI tumour cell line growth inhibition, 48 h
Calls of active or inactive are those of the source. No stated cut-off is given here; in the data, active = GI50 up to about 1.1 µM and inactive = higher.
measurement-label: GI50

Here's what some known entries look like.
CCCCCCCCCC1CC(=O)OC23CCCC(=O)C12O3 (stereo unspecified)    > 100 µM (inactive)
Cc1ccc(/N=N/C(=NNC(=O)c2ccc(C)cc2)c2ccc(N(C)C)cc2)cc1    66.4 µM (inactive)
CC1(O)CC23CC(O)C4(O)C(CC(O)C4(C)C)C(C)(O)C2CCC1C3O (stereo unspecified)    > 100 µM (inactive)
CC1(c2ccc[n+](Cc3ccccc3)c2)OCCO1    > 100 µM (inactive)

Problem: Requested field: GI50. Item: O=C1C(Cl)=C(Cl)C(=O)C(CCNc2nccs2)=C1Cl
Result: 27.4 µM (inactive)

Problem: Requested field: GI50. Item: O=C1c2c(O)cccc2Cc2cc(CO)cc(O)c21
Result: 2.94 µM (inactive)

* * *

# Tested on: SNB-19
# protocol-notes: NCI tumour cell line growth inhibition, 48 h
Activity calls are given as the source filed them. No stated cut-off is given here; in the data, active = GI50 up to about 1.1 µM and inactive = higher.
measurement-label: GI50

Here's what some known entries look like.
N#CC(C#N)=C1c2ccccc2C(=NN)c2ccccc21    > 100 µM (inactive)
CN(CCNC(=O)c1cn(C)c2c1ccc1cc(Cl)ccc12)CCNC(=O)c1cn(C)c2c1ccc1cc(Cl)ccc12    1.83 µM (inactive)
O=C1/C(=C\c2ccccc2)c2ccccc2N1/N=C\c1ccccc1    > 100 µM (inactive)
O=C(Nc1ccc(Cl)cc1)c1cc(S(=O)(=O)NC2=Nc3ccc(Cl)cc3C(c3ccccc3)N2)c(SSc2cc(Cl)c(C(=O)Nc3ccc(Cl)cc3)cc2S(=O)(=O)NC2=Nc3ccc(Cl)cc3C(c3ccccc3)N2)cc1Cl (centres undefined)    > 100 µM (inactive)
CC1/C=C/[C@@]2(C)CCC(C(C)(C)O)C2C(O)C[C@](C)(O)/C=C/C1 (some centres undefined)    > 100 µM (inactive)
COc1cc(Cc2c(C)cc(OC)c3[nH]c4ccccc4c23)cc2c1[nH]c1ccccc12    8.85 µM (inactive)

Problem: Request - read-out GI50 | tested on SNB-19 | compound COc1cc2c(c(OC)c1OC)-c1ccc(SC)c(=O)cc1[C@@H](NCc1cccc([N+](=O)[O-])c1)CC2
Result: < 0.01 µM (active)

Problem: Request - read-out GI50 | tested on SNB-19 | compound CC(NC(=O)c1ccccc1)NC(=O)C(C)C(=O)Nc1ccccc1 (centres undefined)
Result: 27.4 µM (inactive)

Problem: Request - read-out GI50 | tested on SNB-19 | compound O=c1c2cc(O)ccc2n2nnc3ccc(NCCNCCO)c1c32
Result: 4.09 µM (inactive)

Problem: Request - read-out GI50 | tested on SNB-19 | compound Cc1ccc(/N=N/C(=NNC(=O)c2ccc(C)cc2)c2ccc(N(C)C)cc2)cc1
Result: 24.8 µM (inactive)

Problem: Request - read-out GI50 | tested on SNB-19 | compound CC(=O)O[C@@H]1[C@H](C(C)C)[C@@H](OC(C)=O)C/C(C)=C/CC[C@]2(C)O[C@@H]12
Result: > 100 µM (inactive)

Problem: Request - read-out GI50 | tested on SNB-19 | compound CCNCC(=O)O[C@]1(CC)C(=O)OCc2c1cc1n(c2=O)Cc2cc3ccccc3nc2-1
Result: 0.108 µM (active)

Problem: Request - read-out GI50 | tested on SNB-19 | compound COc1ccc(C2=NOC(N)(c3ccc(OC)cc3)C2)cc1 (centres undefined)
Result: > 100 µM (inactive)

* * *

# Tested on: HOP-62
# protocol-notes: NCI tumour cell line growth inhibition, 48 h
Active and inactive are the calls of the source. Rule as the data show it: active = GI50 up to about 1.1 µM and inactive = higher.
measurement-label: GI50

Here's what some known entries look like.
O=C1N=C2Sc3ccc4ccccc4c3N2C1=O    19.2 µM (inactive)
CC1=CC(=O)C(=CN2C(=O)/C(=C\c3cccnc3)NC2=S)C(=O)O1    > 100 µM (inactive)
CC(=O)O[C@@H]1[C@H](C(C)C)[C@@H](OC(C)=O)C/C(C)=C/CC[C@]2(C)O[C@@H]12    > 100 µM (inactive)
Cc1ccc2c3c1O[C@H]1c4nc5ccccc5cc4C[C@@]4(O)[C@@H](C2)N(CC2CC2)CC[C@]314    12.1 µM (inactive)

Problem: Requested field: GI50. Item: O=C1C(Cl)=C(Cl)C(=O)C(CCNc2nccs2)=C1Cl
Result: > 100 µM (inactive)

* * *

Below, each entry is listed alongside its reported GI50.
# System: T47D
# protocol-notes: NCI tumour cell line growth inhibition, 48 h
The source made the active and inactive calls. No stated cut-off is given here; in the data, active = GI50 up to about 1.1 µM and inactive = higher.

Here's what some known entries look like.
COc1cc(/C=N\NC(=O)C[N+](C)(C)C)cc(OC)c1OC    > 10 µM (inactive)
CCCCCCCCCCCCCC1=C(O)C(=O)C(CC2=C(O)C(=O)C(CCCCCCCCCCCCC)=C(O)C2=O)=C(O)C1=O    > 100 µM (inactive)
Cc1cc2c(cc1Cl)SC(NNC(=O)c1ccccc1)=NS2(=O)=O    > 10 µM (inactive)

Problem: Requested field: GI50. Item: C=C1c2nc3ccccc3n2C=C(c2ccc(C)cc2)N1c1ccccc1
Result: 3.24 µM (inactive)

Problem: Requested field: GI50. Item: O=[As](O)(O)c1ccc(NCc2ccccc2)cc1
Result: > 100 µM (inactive)

Problem: Requested field: GI50. Item: COc1ccc(C2=Nc3cc(C)c(C)cc3NC(c3ccccc3)C2)cc1 (stereo unspecified)
Result: 21.7 µM (inactive)
